IC50 reference
Molecular target: system Xc^− (Homo sapiens, UniProt Q9UPY5)
Sequence (Q9UPY5 1-501): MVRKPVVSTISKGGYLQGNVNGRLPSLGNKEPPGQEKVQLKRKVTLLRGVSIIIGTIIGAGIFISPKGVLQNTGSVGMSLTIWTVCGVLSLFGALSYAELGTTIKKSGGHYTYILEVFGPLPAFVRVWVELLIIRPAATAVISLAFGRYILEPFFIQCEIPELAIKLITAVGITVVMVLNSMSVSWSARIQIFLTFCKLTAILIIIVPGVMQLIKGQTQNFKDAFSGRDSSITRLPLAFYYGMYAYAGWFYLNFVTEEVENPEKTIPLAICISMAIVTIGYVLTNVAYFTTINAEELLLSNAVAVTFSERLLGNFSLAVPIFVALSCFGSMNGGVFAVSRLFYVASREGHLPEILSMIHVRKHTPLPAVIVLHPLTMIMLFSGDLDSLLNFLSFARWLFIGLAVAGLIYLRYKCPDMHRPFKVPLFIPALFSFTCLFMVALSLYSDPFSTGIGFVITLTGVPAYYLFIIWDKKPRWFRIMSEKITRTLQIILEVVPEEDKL
Sequence (P08195 1-529 partner): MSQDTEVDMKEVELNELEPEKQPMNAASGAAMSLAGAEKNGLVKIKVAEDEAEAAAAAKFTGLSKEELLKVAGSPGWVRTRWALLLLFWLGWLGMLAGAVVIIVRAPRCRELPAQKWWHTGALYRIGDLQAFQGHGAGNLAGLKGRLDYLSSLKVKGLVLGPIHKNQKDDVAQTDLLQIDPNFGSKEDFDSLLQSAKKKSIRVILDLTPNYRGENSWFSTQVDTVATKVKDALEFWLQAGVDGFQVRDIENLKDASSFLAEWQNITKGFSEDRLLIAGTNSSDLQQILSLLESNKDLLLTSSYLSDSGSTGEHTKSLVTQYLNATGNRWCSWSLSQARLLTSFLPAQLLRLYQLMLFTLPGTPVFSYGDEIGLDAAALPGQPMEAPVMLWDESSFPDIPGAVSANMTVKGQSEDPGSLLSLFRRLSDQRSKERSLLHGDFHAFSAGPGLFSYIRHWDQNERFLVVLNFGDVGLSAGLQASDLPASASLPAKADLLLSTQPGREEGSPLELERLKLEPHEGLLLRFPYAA
Experiment: [^14C]L-Cystine uptake assay
Type: cell-based
Parameters: endogenous in cells; host or cells: H4 cells
Conditions: H4 cells, sodium-free HEPES buffer, 0.5 μM L-[14C]Cystine and 4.5 μM L-Cystine, 1 hour at 37° C.; read-out: pIC50 [^14C] L-Cystine uptake assay (converted)

Study these solved cases before continuing.
[
  {
    "Compound": "CC1C(=O)N(CC(=O)Nc2ccc(Cl)c(F)c2)c2cc(Cl)cc(F)c2-c2cnncc21 (single isomer, unassigned)",
    "IC50": "< 15.8 nM"
  },
  {
    "Compound": "CC1C(=O)N(CC(=O)Nc2ccc(C(F)(F)F)nc2)c2cc(N3CC(F)(F)C3)ccc2-c2cccnc21 (single isomer, unassigned)",
    "IC50": "15.8 to 39.8 nM"
  },
  {
    "Compound": "O=C(CN1C(=O)Cc2ccccc2-c2cnc(Cl)cc21)Nc1ccc(C(F)(F)F)cc1",
    "IC50": "39.8 to 100 nM"
  }
]

INPUT: Lab request: please report IC50 under test system system Xc^− (Homo sapiens, UniProt Q9UPY5) for Cc1cc2c(c(F)n1)-c1cncnc1[C@@H](C)C(=O)N2CC(=O)Nc1ccc(C(F)(F)F)cc1 (single isomer, unassigned)
OUTPUT: 15.8 to 39.8 nM

INPUT: API: value(readout= IC50, system= system Xc^− (Homo sapiens, UniProt Q9UPY5), query= Cc1cc2c(c(F)n1)-c1cncnc1C(C)C(=O)N2CC(=O)Nc1ccc(Cl)c(F)c1 (single isomer, unassigned) )
OUTPUT: < 15.8 nM

INPUT: Give the reported IC50 for "Cc1cc2c(c(F)n1)-c1c(F)cccc1CC(=O)N2CC(=O)Nc1ccc(C(F)(F)F)cc1" (system: system Xc^− (Homo sapiens, UniProt Q9UPY5)).
OUTPUT: 39.8 to 100 nM

INPUT: // lookup IC50 | system=system Xc^− (Homo sapiens, UniProt Q9UPY5) | key= "CN1CCN(c2cc3c(cn2)-c2ccccc2CC(=O)N3CC(=O)Nc2ccc(C(F)(F)F)cc2)CC1=O"
OUTPUT: 15.8 to 39.8 nM

INPUT: Identify the measured IC50 of "Cc1cc2c(cc1C)N(CC(=O)Nc1ccc(C(F)(F)F)cc1)C(=O)Cc1cncnc1-2" for system Xc^− (Homo sapiens, UniProt Q9UPY5).
OUTPUT: 39.8 to 100 nM

INPUT: Provide value of IC50 for this record tested with system Xc^− (Homo sapiens, UniProt Q9UPY5): COc1ccc(NC(=O)CN2C(=O)C(C)c3ncccc3-c3c2cc(C)nc3F)cc1F (stereo not drawn)
OUTPUT: 15.8 to 39.8 nM

INPUT: So what IC50 did COCCN(C)c1cc2c(c(F)n1)-c1cccnc1C(C)C(=O)N2CC(=O)Nc1ccc(Cl)c(F)c1 (stereo not drawn) get with system Xc^− (Homo sapiens, UniProt Q9UPY5)?
OUTPUT: < 15.8 nM

INPUT: Could you share what IC50 was measured for COc1cc2c(cn1)-c1cccnc1C(C)C(=O)N2CC(=O)Nc1ccc(C(F)F)cc1 (single isomer, unassigned) , tested on system Xc^− (Homo sapiens, UniProt Q9UPY5)?
OUTPUT: 39.8 to 100 nM

INPUT: Give the reported IC50 for Cc1cc2c(c(F)n1)-c1ccn(C)c(=O)c1C(C)C(=O)N2CC(=O)Nc1ccc(Cl)c(F)c1 (stereo not drawn) (system: system Xc^− (Homo sapiens, UniProt Q9UPY5)).
OUTPUT: 39.8 to 100 nM

INPUT: API: value(readout= IC50, system= system Xc^− (Homo sapiens, UniProt Q9UPY5), query= "Cc1nccc2c1-c1ccccc1CC(=O)N2CC(=O)Nc1ccc(C(F)(F)F)cc1" )
OUTPUT: 39.8 to 100 nM

INPUT: Hi! What's the reported IC50 for Cc1cc2c(c(F)n1)-c1cccnc1[C@@H](O)C(=O)N2CC(=O)Nc1ccc(C(F)(F)F)cc1 (single isomer, unassigned) on system Xc^− (Homo sapiens, UniProt Q9UPY5)?
OUTPUT: 15.8 to 39.8 nM

INPUT: Lab note: need IC50 for "Cc1cc2c(c(C)n1)-c1ccc(Cl)cc1CC(=O)N2CC(=O)Nc1ccc(C(F)(F)F)cc1" on system Xc^− (Homo sapiens, UniProt Q9UPY5), anyone have it?
OUTPUT: < 15.8 nM
